Entries and their prothrombin time, T
# Tested on: plasma hemostasis
# Experiment Description: Prothrombin time after intravenous administration
# Type: in vivo, rabbit
# Condition Parameters: 15.0 mg/kg intravenously, after 120 minutes; control 11.8 ± 0.1
Endpoint Label: prothrombin time, T (s)

Molecule: Nc1cnc2c(=O)n([C@@H]3O[C@H](CO)[C@@H](O)[C@H]3O)[nH]c(=O)c2n1.[Na] [Compound 21]
Recorded Value: 11.5
//
Molecule: Nc1ccnc2c(=O)n([C@@H]3O[C@H](CO)[C@@H](O)[C@H]3O)[nH]c(=O)c12 [Compound 2]
Recorded Value: 11.7
//
Molecule: O=c1[nH][nH]c(=O)c2c(Br)ncnc12.[K] [Compound 37]
Recorded Value: 11.8
//
Molecule: Nc1cccc2c(=O)[nH][nH]c(=O)c12.[Na] [Compound 15]
Recorded Value: 11.5

----------
# Experiment Description: Chronic toxicity of suppositories: indexes of peripheral blood
# Assay type: in vivo, rats
# Condition Parameters: male rats, suppositories rectally, 500 mg/kg, 1 month; control 0.8 ± 0.4
Entries and their Stab neutrophil

Molecule: O=c1[nH]n([C@@H]2O[C@H](CO)[C@@H](O)[C@H]2O)c(=O)c2nc(O)cnc12.[Na].[Na] [Compound 23]
Stab neutrophil: 1.0 ± 0.3%

Molecule: Nc1cccc2c(=O)[nH][nH]c(=O)c12.[Na] [Compound 15]
Stab neutrophil: 0.8 ± 0.5/0.8 ± 0.5%

Molecule: O=c1[nH][nH]c(=O)c2c(Br)ncnc12.[K] [Compound 37]
Stab neutrophil: 0.9 ± 0.4%

Molecule: O=C([O-])c1ncnc2c(=O)n([C@@H]3O[C@H](CO)[C@@H](O)[C@H]3O)[nH]c(=O)c12.[Na+] [Compound 34]
Stab neutrophil: 0.9 ± 0.2%

----------
Entries and their Glucose in blood serum
# Experiment Description: Chronic toxicity of suppositories: biochemical indexes of blood serum;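 further: inbred rats dosed rectally with softened suppositories, controls given matching volumes of sterile medical liquid paraffin, serum sampled one month into a two-month dosing course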
# Format: in vivo, rats
# Condition Parameters: male rats, suppositories, 500 mg/kg, 1 month; control 9.76 ± 0.15

Compound Structure: O=c1[nH][nH]c(=O)c2c(Br)ncnc12.[K]
Quantity Unit: mM
Glucose in blood serum: 10.9
--
Compound Structure: Nc1cccc2c(=O)[nH][nH]c(=O)c12.[Na]
Quantity Unit: mM
Glucose in blood serum: 10.7

----------
# Experiment Description: Morphine abstinence model: nitrites/nitrates NOX− in blood plasma, liver and brain
# Type: in vivo, rats Wistar
# Condition Parameters: Control + Compound, 20.0 mg/kg intramuscularly; control 0.260 ± 0.023
Endpoint Label: Nitrites in liver

Compound Structure: O=c1[nH][nH]c(=O)c2nccnc12.[Li]
Recorded Value: 0.307 ± 0.012 nmol/mg of protein
--
Compound Structure: Nc1cccc2c(=O)[nH][nH]c(=O)c12.[Na]
Recorded Value: 0.259 ± 0.019 nmol/mg of protein
--
Compound Structure: O=c1[nH][nH]c(=O)c2ncccc12.[Li]
Recorded Value: 0.245 ± 0.010 nmol/mg of protein
--
Compound Structure: O=c1[nH][nH]c(=O)c2c(Br)ncnc12.[K]
Recorded Value: 0.262 ± 0.018 nmol/mg of protein

----------
Entries and their Reticulocytes
# Experiment Description: Chronic toxicity of suppositories: indexes of peripheral blood
# Format: in vivo, rats
# Condition Parameters: male rats, suppositories rectally, 50 mg/kg, 1 month; control 2.8%0.3

Compound: O=c1[nH]n([C@@H]2O[C@H](CO)[C@@H](O)[C@H]2O)c(=O)c2nc(O)cnc12.[Na].[Na] [Compound 23]
Reticulocytes, %: 2.7
//
Compound: O=C([O-])c1ncnc2c(=O)n([C@@H]3O[C@H](CO)[C@@H](O)[C@H]3O)[nH]c(=O)c12.[Na+] [Compound 34]
Reticulocytes, %: 2.7
//
Compound: O=c1[nH][nH]c(=O)c2c(Br)ncnc12.[K] [Compound 37]
Reticulocytes, %: 2.6
//
Compound: Nc1cccc2c(=O)[nH][nH]c(=O)c12.[Na] [Compound 15]
Reticulocytes, %: 2.6
